For each entry below, report its GI50 value.
System: NCI-H460
Experiment summary: NCI tumour cell line growth inhibition, 48 h
Calls of active or inactive are those of the source. Rule as the data show it: active = GI50 up to about 1.1 µM and inactive = higher.

Item: C/C=C\C(CC(=O)NCC(=O)c1c[nH]c2ccccc12)CC(=O)OC (configuration not stated) Test system: NCI-H460 Read-out: GI50 Value: ?
> 100 µM (inactive)

Entry to check: "CCCCCCCCCCCCSC(=S)c1c(C)[nH]n(CCCCCCCCCCCC)c1=O"
50.5 µM (inactive)

Entry to check: "CN(C)CCCc1cccc2[nH]c3c(c12)CN(C)CC3"
> 100 µM (inactive)

Entry to check: "Cc1ccccc1/N=N/c1ccc(/N=N/c2c(O)ccc3cc(S(=O)(=O)O)cc(S(=O)(=O)O)c23)c(C)c1"
> 100 µM (inactive)

Entry to check: NC(CCCCNCc1ccccc1O)C(=O)O (configuration not stated)
> 100 µM (inactive)

Entry to check: "CCOC(=O)/C(=N\Nc1ccc(-n2c(C)nc3ccccc3c2=O)cc1)C(C)=O"
92.9 µM (inactive)

Entry to check: "CS(=O)(=O)CS(=O)(=O)OCCCl"
83.6 µM (inactive)

Entry to check: N#Cc1nc(C2OC(COC(=O)c3ccccc3)C(OC(=O)c3ccccc3)C2OC(=O)c2ccccc2)oc1N (configuration not stated)
76.4 µM (inactive)

Entry to check: "COc1cccc(CCNC(=O)Cc2ccccc2CCO)c1"
> 100 µM (inactive)

Entry to check: Cn1c(=O)oc2cc(C3CCC(=O)N3Cc3csc(-c4ccccc4)n3)ccc21 (configuration not stated)
> 100 µM (inactive)

Entry to check: "Cc1ccc(S(=O)(=O)NNC(=O)Nc2ccc(Cl)cc2)cc1"
> 100 µM (inactive)

Entry to check: "Cc1cc2c(C)n[nH]c2c(C(=O)O)c1C"
> 100 µM (inactive)

Entry to check: Cc1ccc(C2=Nc3ccccc3[S+]([O-])C(c3ccc4c(c3)OCO4)C2)cc1 (configuration not stated)
> 10 µM (inactive)

Entry to check: "CCN(C(=S)N[C@H](C(=O)N[C@@H](C)C(=O)OC)C(C)C)c1ccccc1"
33.6 µM (inactive)

Entry to check: "C[C@H](N[C@H]1CCC[C@]1(O)C#Cc1ccc2c(c1)OCO2)c1ccccc1"
21.4 µM (inactive)

Entry to check: "COc1cc2c(cc1O)N=C[C@@H]1CC[C@@H](O)N1C2=O.COc1cc2c(cc1O)N=C[C@@H]1CC[C@H](O)N1C2=O"
2.54 µM (inactive)

Entry to check: "Cc1ncc([N+](=O)[O-])n1CCNC(=O)CCCCCn1ccnc1[N+](=O)[O-]"
> 100 µM (inactive)

Entry to check: "O=c1[nH]nc(-c2ccccc2)n1/N=C/c1ccccc1O"
> 100 µM (inactive)

Entry to check: "c1ccc2c[n+](Cc3ccnc4ccccc34)ccc2c1"
> 100 µM (inactive)

Entry to check: N#CC(C(=O)C(=O)C(C#N)c1ccc(Br)cc1)c1ccc(Br)cc1 (configuration not stated)
16 µM (inactive)

Entry to check: "O=C(/C=C/c1ccc(Cl)cc1)c1ccncc1"
59.7 µM (inactive)

Entry to check: N#CC(c1ccccc1)N1CCCN(C(C#N)c2ccccc2)C1c1ccccc1O (configuration not stated)
> 100 µM (inactive)

----------
Test system: PC-3
Experiment summary: NCI tumour cell line growth inhibition, 48 h
Activity calls are given as the source filed them. Cut-off read from the data, not from the text of the source: active = GI50 up to about 1.1 µM and inactive = higher.
Measured parameter: GI50

Which GI50 reading was recorded for the compound "S=C(/N=c1/sc(Nc2ccccc2)nc2sc3c(c12)CCCC3)Nc1ccccc1" ?
> 62.5 µM (inactive)

Entry to check: CC1=NN(C(=O)CC(=O)Nc2ccc(C)cc2)C(=O)C1/N=N\c1ccc(S(=O)(=O)c2ccc(/N=N/C3C(=O)N(C(=O)CC(=O)Nc4ccc(C)cc4)N=C3C)cc2)cc1 (stereo not given)
72.4 µM (inactive)

Entry to check: CC(=O)c1c(-c2ccc(Cl)cc2)c(C#N)c(=S)n(C2OC(CO)C(O)C(O)C2O)c1C (stereo not given)
31.5 µM (inactive)

Entry to check: "COC(=O)Cc1c(/C=C/C(C)(C)n2cnc(CCN3C(=O)CCC3=O)c2)[nH]c2ccccc12"
> 100 µM (inactive)

Entry to check: "COC(OC)[C@@H]1OC[C@H](n2cnc3c(N)ncnc32)[C@H]1O"
> 100 µM (inactive)

Entry to check: "CCOC(=O)c1c(CN2CCCC2)n(-c2ccccc2)c2cc(Br)c(OC)cc12"
20.8 µM (inactive)

Entry to check: "Nc1nc2cc3nc(N)c(N)nc3cc2nc1N"
> 100 µM (inactive)

Entry to check: "CCCCn1cnc2c(SC)ncnc21"
> 100 µM (inactive)

Entry to check: NC1CC(=O)c2c(I)sc(I)c21 (stereo not given)
18.7 µM (inactive)

Entry to check: "CC(C)=CC(=O)c1[nH]c2ccccc2c1CC(=O)NCCc1cn(C(c2ccccc2)(c2ccccc2)c2ccccc2)cn1"
2.46 µM (inactive)

----------
System: MCF7
Experiment summary: NCI tumour cell line growth inhibition, 48 h
Calls of active or inactive are those of the source. No stated cut-off is given here; in the data, active = GI50 up to about 1.1 µM and inactive = higher.
For each entry below, report its GI50 value.

Which GI50 reading was recorded for the compound CC(=O)C(CN1CCCCC1)C(c1ccccc1)c1c(O)c2ccccc2oc1=O (stereo not given) ?
> 100 µM (inactive)

Entry to check: "O=C(Nc1cccc2cnccc12)c1cc2c(cc1Cl)Sc1nccn1S2(=O)=O"
5.36 µM (inactive)

Entry to check: "C[C@H](N[C@H]1CCC[C@]1(O)C#Cc1ccc2c(c1)OCO2)c1ccccc1"
> 25 µM (inactive)

Entry to check: C=C1CC(Cn2cc(Br)c(=O)[nH]c2=O)(c2ccc(Br)cc2)OC1=O (stereo not given)
2.61 µM (inactive)

Entry to check: "C=CC(C)(C)C(=C)C(=O)Nc1ccccc1I"
> 100 µM (inactive)

----------
Tested on: IGROV-1
Experiment summary: NCI tumour cell line growth inhibition, 48 h
The source made the active and inactive calls. Cut-off read from the data, not from the text of the source: active = GI50 up to about 1.1 µM and inactive = higher.
Measured parameter: GI50

Which GI50 reading was recorded for the compound "CCON1CC(C(=O)OC)=C(O)C1=O" ?
> 100 µM (inactive)

Entry to check: "Cc1cc(=O)oc2c(C)c3oc(CBr)cc3cc12"
16.8 µM (inactive)

Entry to check: "Oc1ccc2ccccc2c1NCn1nc(CCCCCCCCc2nn(CNc3c(O)ccc4ccccc34)c(=S)o2)oc1=S"
6.7 µM (inactive)

Entry to check: "Cc1nc2ccccc2[s+]c1-c1cnc(NC#N)nc1C(=O)Nc1cccc(Cl)c1"
> 100 µM (inactive)

Entry to check: "C/C(=C\c1ccccc1)C(=O)NCc1ccc(C(=O)NCCc2c[nH]c3ccccc23)cc1"
> 100 µM (inactive)

----------
Tested on: U-251
Experiment summary: NCI tumour cell line growth inhibition, 48 h
The source made the active and inactive calls. Rule as the data show it: active = GI50 up to about 1.1 µM and inactive = higher.
Response enum: 1 = active, -1 = inactive

What outcome does the record of this test show for "COc1cc2c(/C=C3/C(=O)Nc4ccccc43)c(Cl)n(Cc3ccc(Cl)cc3)c2cc1C" ?
1

Entry to check: "Cc1nc2ccccc2[s+]c1-c1cnc(NC#N)nc1C(=O)Nc1cccc(Cl)c1"
-1

Entry to check: "Clc1nc(-[n+]2ccc(-c3ccncc3)cc2)nc(Nc2ccccc2)c1Cl"
-1

Entry to check: COC(=O)C(=O)C(CC(=O)Nc1c(C)cccc1C)C(=O)OC (centres undefined)
-1

Entry to check: "CCOC(=O)c1[nH]c2cc(OC)c(OC)cc2c1CN(C)C"
-1

Entry to check: "CC(=O)O[C@H]1C(=O)[C@@]2(C)[C@H]([C@H](OC(=O)c3ccccc3)[C@@]3(O)C[C@H](O)C(C)=C1C3(C)C)[C@]1(OC(C)=O)CO[C@@H]1C[C@@H]2O"
-1

Entry to check: "CC(=O)c1c(O)c2c([nH]c1=O)CCCC2"
-1

Entry to check: COC(=O)C1C(O)C(C)C(O)C(C)(O)C=C(C)C2=C3C(=C(C)C(=O)c4c(O)c(c(C)c(OC(C)=O)c43)NC(=O)C(C)=C/C=C\C(C)(O)C(O)C(C)C1O)OCO2 (centres undefined)
-1

Entry to check: COC(=O)c1cc(CC2Cc3cc4c(cc3C2=O)CCC4)cc2c1CCC2 (centres undefined)
-1

Entry to check: "COc1cccc(CCNC(=O)Cc2ccccc2CCO)c1"
-1

Entry to check: CN(C)C1C(CO)OC(n2cnc3c(N)ncnc32)C1O (centres undefined)
-1

Entry to check: "CS(=O)(=O)Oc1cccc(/C=N/N=C(\N)NO)c1"
-1

Entry to check: CC(C)CC(CNC(Cc1ccc(Cl)cc1)C(N)=O)NC(=O)C(Cc1c[nH]cn1)NC(=O)CNC(=O)C(NC(=O)C(C)NC(=O)C(Cc1c[nH]c2ccccc12)NC(=O)C(CCC(=O)O)NC(=O)C(N)Cc1ccccc1)C(C)C (centres undefined)
-1

Entry to check: CCOC(=O)C(NC(=O)c1ccco1)(Nc1nc2ccc(OCC)cc2s1)C(F)(F)F (centres undefined)
-1

Entry to check: CC(=O)Oc1ccc(/C=C/C(=O)NCC(NC(=O)/C=C/c2ccc(OC(C)=O)c(OC(C)=O)c2)C(=O)O)cc1OC(C)=O (centres undefined)
-1

Entry to check: "Cc1cc(OCc2nnc3n2S(=O)(=O)c2ccccc2N3C)ccc1Cl"
-1

Entry to check: COC1=CCC2=C(CCN(C(=O)C3CC3)C2Cc2ccc(OC)c(O)c2)C1 (centres undefined)
-1

Entry to check: "CN(Cc1cccc2ccsc12)/N=C\c1ccc(Cl)cc1"
-1

Entry to check: CC1=NN(C(=O)CC(=O)Nc2ccc(C)cc2)C(=O)C1/N=N\c1ccc(S(=O)(=O)c2ccc(/N=N/C3C(=O)N(C(=O)CC(=O)Nc4ccc(C)cc4)N=C3C)cc2)cc1 (centres undefined)
-1

Entry to check: "CC(C)(C)NC(=O)/C(=C\Sc1ccccc1)c1ccccc1"
-1

Entry to check: Nc1nc2c(c(=O)[n-]1)[n+](CCO)cn2C1OC(CO)C(O)C1O (centres undefined)
-1

Entry to check: Nc1nncc2c1c(Br)cn2C1OC(CO)C(O)C1O (centres undefined)
-1

Entry to check: "CC1=NN(c2nc(N)nc(CO)n2)C(C)(C)C1"
-1

Entry to check: CC(=O)NC(Cc1ccc(O)cc1)C(=O)O (centres undefined)
-1

Entry to check: Cc1cc(O)nc(NN2C(Cl)C(=O)C2c2cccc(Cl)c2)n1 (centres undefined)
-1

Entry to check: "CC(=O)c1ccc(NC(=O)C(=O)Nn2c(S)nc3ccccc3c2=O)cc1"
-1

Entry to check: "CCON1CC(C(=O)OC)=C(O)C1=O"
-1

Entry to check: "C=CCn1c(-c2ccc(/N=N/Nc3ccc(-c4n[nH]c(=S)n4CC=C)cc3)cc2)n[nH]c1=S"
-1

Entry to check: "Cn1c(N=P(c2ccccc2)(c2ccccc2)c2ccccc2)c([N+](=O)[O-])c(=O)n(C)c1=O"
-1

Entry to check: "Cc1ccc(S(=O)(=O)NNC(=O)Nc2ccc(Cl)cc2)cc1"
-1

Entry to check: "CC(C)(C)OC(=O)NC(C)(C)C(=O)NCCC(=O)O"
-1

Entry to check: "C=C(C(=C)P(=S)(C(C)C)C(C)C)P(=S)(C(C)C)C(C)C"
-1

Entry to check: "OCc1cccc(Nc2nc(O)c3[nH]cnc3n2)c1"
-1

Entry to check: CC(=O)c1c(-c2ccc(Cl)cc2)c(C#N)c(=S)n(C2OC(CO)C(O)C(O)C2O)c1C (centres undefined)
-1

Entry to check: Nc1nc(=O)n(C2CC(O)C(CO)O2)c2nc(-c3ccc(-c4ccccc4)cc3)cnc12 (centres undefined)
-1

Entry to check: "O=C(O)c1c2c(cc3c(=O)c4ccccc4[nH]c13)CCCC2"
-1

Entry to check: CCCNCCCCC(NC(C)=O)C(=O)NCc1ccccc1 (centres undefined)
-1

Entry to check: "Clc1ccc(/C=N/c2ccc3c(c2)Cc2ccccc2-3)c(Cl)c1"
-1

Entry to check: "N#Cc1c(-c2ccccc2)cc(Nc2ccc(Cl)cc2)n2c1nc1ccccc12"
-1

Data provenance is ChEMBL document CHEMBL1201862.
